tested on: Rabbit Psoas myofibrils (skeletal myosin ATPase); test: Myofibril ATPase assay, rabbit psoas (skeletal) myofibrils; format: biochemical; conditions: Y75 value (no ‡ mark); rabbit psoas myofibrils
RECORDED METRIC: Skeletal EC25 (nM)

Before answering, review these 5 worked examples.
## Task If you can, please state the reported Skeletal EC25 value of Cc1c(C(F)(F)C(=O)NC(C)c2cccc(C#N)n2)c(=O)[nH]c2ccc(F)c(F)c12 (single isomer, unassigned) [Compound 2587] .
## Result 5650

## Task If you can, please state the reported Skeletal EC25 value of Cc1c(F)ccc2[nH]c(=O)c(C(F)(F)C(=O)N[C@H](C)c3ncc(C#N)cc3F)c(C)c12 (single isomer, unassigned) [compound 4811] .
## Result 590

## Task If you can, please state the reported Skeletal EC25 value of Cc1c(CC(=O)N[C@@H](C)c2cnc(C#N)cn2)c(=O)[nH]c2ccc(F)c(F)c12 [compound 1146] .
## Result 210

## Task If you can, please state the reported Skeletal EC25 value of Cc1c(C(F)(F)C(=O)N[C@@H]2CCc3cc(C#N)cnc32)c(=O)[nH]c2ccc(F)cc12 (single isomer, unassigned) [compound 2515] .
## Result 100000

## Task If you can, please state the reported Skeletal EC25 value of C[C@H](NC(=O)C1(c2cc3c(F)c(F)ccc3[nH]c2=O)CC1)c1ncc(C#N)cc1F (single isomer, unassigned) [compound 2593] .
## Result 1150

a. C[C@H](NC(=O)Cc1cc2cc(F)c(F)cc2[nH]c1=O)c1cnc(C#N)nc1 [compound 1075]
b. C[C@H](NC(=O)C(F)(F)c1cc2c(F)c(F)ccc2[nH]c1=O)c1cccc(C#N)n1 (single isomer, unassigned) [compound 2572]
c. Cc1ccncc1[C@@H](C)NC(=O)Cc1c(C)c2c(C)c(F)ccc2[nH]c1=O [compound 1046]
d. C[C@H](NC(=O)Cc1cc2c(F)cccc2[nH]c1=O)c1ccc(C#N)cn1 [compound 48]
e. N#Cc1cc(F)c2c(c1)OC[C@@H]2NC(=O)C1(c2cc3c(F)c(F)ccc3[nH]c2=O)CC1 (single isomer, unassigned) [compound 4822]
## Task List by increasing Skeletal EC25. Present the labels in the sequence the task asks for.
## Result c, e, d, a, b

a. C[C@H](NC(=O)Cc1cc2cc(F)c(F)cc2[nH]c1=O)c1ncc(C#N)cn1 (single isomer, unassigned) [compound 2036]
b. Cc1c(C(F)(F)C(=O)N[C@H](C)c2ncc(C#N)cn2)c(=O)[nH]c2ccc(F)c(C(F)(F)F)c12 (single isomer, unassigned) [Compound 2513]
## Task Please indicate which has the smaller reported Skeletal EC25: a , or b . # respond with the chosen item's label
## Result b
